Target: CFTR-mediated chloride transport (Homo sapiens, UniProt P13569)
Sequence (P13569 whole entry, looked up): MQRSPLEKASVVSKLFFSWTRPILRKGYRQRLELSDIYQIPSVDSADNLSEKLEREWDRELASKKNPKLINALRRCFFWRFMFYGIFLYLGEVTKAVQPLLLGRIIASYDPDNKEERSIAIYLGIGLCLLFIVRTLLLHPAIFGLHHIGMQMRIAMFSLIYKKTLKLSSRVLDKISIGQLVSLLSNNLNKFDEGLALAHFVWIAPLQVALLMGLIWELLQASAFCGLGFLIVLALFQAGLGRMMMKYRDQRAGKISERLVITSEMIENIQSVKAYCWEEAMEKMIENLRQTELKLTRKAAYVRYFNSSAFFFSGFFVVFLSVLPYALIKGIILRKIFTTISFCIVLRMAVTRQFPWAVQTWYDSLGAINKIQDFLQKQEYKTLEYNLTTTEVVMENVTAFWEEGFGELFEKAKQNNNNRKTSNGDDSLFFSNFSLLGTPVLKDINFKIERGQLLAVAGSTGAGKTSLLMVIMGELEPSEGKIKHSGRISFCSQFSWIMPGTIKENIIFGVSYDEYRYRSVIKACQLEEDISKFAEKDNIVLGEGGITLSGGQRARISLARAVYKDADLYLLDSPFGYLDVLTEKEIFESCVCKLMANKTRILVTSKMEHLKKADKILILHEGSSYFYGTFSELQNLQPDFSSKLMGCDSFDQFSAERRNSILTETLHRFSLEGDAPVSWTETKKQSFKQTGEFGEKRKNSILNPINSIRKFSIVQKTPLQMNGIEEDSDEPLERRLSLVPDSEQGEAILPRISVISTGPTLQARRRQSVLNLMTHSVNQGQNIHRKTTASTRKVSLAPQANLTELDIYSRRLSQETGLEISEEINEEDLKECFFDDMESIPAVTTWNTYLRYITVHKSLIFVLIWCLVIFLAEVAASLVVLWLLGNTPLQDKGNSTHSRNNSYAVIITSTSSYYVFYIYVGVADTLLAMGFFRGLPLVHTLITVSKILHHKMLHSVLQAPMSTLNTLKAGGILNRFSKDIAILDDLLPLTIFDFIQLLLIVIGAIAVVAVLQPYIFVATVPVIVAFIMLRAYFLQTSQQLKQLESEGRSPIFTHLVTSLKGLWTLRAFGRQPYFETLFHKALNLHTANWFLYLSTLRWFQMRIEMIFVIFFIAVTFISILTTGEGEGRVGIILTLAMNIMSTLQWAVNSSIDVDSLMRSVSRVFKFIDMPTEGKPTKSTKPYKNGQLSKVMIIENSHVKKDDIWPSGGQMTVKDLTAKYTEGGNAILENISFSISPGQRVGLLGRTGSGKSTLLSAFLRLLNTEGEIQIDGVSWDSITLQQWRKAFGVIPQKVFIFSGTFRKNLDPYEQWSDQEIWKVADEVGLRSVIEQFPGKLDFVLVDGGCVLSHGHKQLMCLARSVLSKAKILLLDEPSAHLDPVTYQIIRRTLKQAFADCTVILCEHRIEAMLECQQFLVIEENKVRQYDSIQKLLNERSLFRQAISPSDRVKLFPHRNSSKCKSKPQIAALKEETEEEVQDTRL
Conditions: enteroid cells incubated with test compound 18-24 hours; acute 10 μM forskolin and 300 nM Compound III
The compounds listed here are annotated with their EC50.

CC1(C)C[C@@H]2CN1c1nc(-n3ccc(OCCC4C5(CC5)C45CC5)n3)ccc1C(=O)NS(=O)(=O)c1cccc(n1)NCCO2 (single isomer, unassigned) [Compound 196] = 1 to 3 µM
Cc1c2cnn1CCCC1CN(c3nc(-n4ccc(OCCC5(C(F)(F)F)CC5)n4)ccc3C(=O)NS2(=O)=O)C(C)(C)C1 (centres unmarked) = < 1 µM
CC1(C)CC[C@H]2CCCOc3cccc(c3)S(=O)(=O)NC(=O)c3ccc(-n4ccc(OCCC5(C(F)(F)F)CC5)n4)nc3N21 (single isomer, unassigned) [Compound 8] = > 3 µM
Cc1nn2cc1S(=O)(=O)NC(=O)c1ccc(-n3ccc(OCCC4(C(F)(F)F)CC4)n3)nc1N1CC(CCCC2)CC1(C)C (centres unmarked) = > 3 µM

Now turn to the next compound.
The value of EC50 measured for the compound CC1(C)C[C@H]2C[C@@H](F)CNc3cccc(n3)S(=O)(=O)NC(=O)c3ccc(-n4ccc(OCCC5C6(CC6)C56CC6)n4)nc3N1C2 (single isomer, unassigned) [Compound 308] turned out to be < 1 µM

----------
Target: CFTR-mediated chloride transport (Homo sapiens, UniProt P13569)
Format: cell-based
Conditions: enteroid cells incubated with test compound 18-24 hours; acute 10 μM forskolin and 300 nM Compound III; % of chloride transport with 3 μM Compound A, 3 μM Compound II and 300 nM acute Compound III triple combination control
quantity name: Max. Activity

Please review the following examples before continuing.
CC1(C)C[C@H]2CCCNc3ccc(cn3)S(=O)(=O)NC(=O)c3ccc(-n4ccc(OCCC5(C(F)(F)F)CC5)n4)nc3N1C2 (single isomer, unassigned) [Compound 73] = +++ (+++ is >60%)
C[C@@H]1CC[C@H]2CN(c3nc(N4CCN(CCC(C)(C)C)C4=O)ccc3C(=O)NS(=O)(=O)c3cccc(n3)N1)C(C)(C)C2 (single isomer, unassigned) [Compound 216] = +++ (+++ is >60%)
CC1(C)CC2CCCn3cc(cn3)S(=O)(=O)NC(=O)c3ccc(-n4ccc(OCCC5(C(F)(F)F)CC5)n4)nc3N1C2 (centres unmarked) = ++ (++ is 30-60%)
CC1(C)C[C@H]2CCCCn3ccc(n3)S(=O)(=O)NC(=O)c3ccc(-n4ccc(OCCCC5(C(F)(F)F)CC5)n4)nc3N1C2 (single isomer, unassigned) [Compound 276] = ++ (++ is 30-60%)
CC1(C)C[C@@H]2CCCNc3cccc(n3)S(=O)(=O)NC(=O)c3ccc(N4CC[C@H](OCCCC5(C(F)(F)F)CC5)C4=O)nc3N1C2 (single isomer, unassigned) [Compound 242] = ++ (++ is 30-60%)

The value of Max. Activity measured for the molecule CC1(C)C[C@H]2CCCn3cc(cn3)S(=O)(=O)NC(=O)c3ccc(-n4ccc(OCCC5(C(F)(F)F)CC5)n4)nc3N1C2 (single isomer, unassigned) [Compound 118] turned out to be + (+ is <30%)

The value of Max. Activity measured for the molecule CC1(C)C[C@@H]2CN1c1nc(-n3ccc(OCCC4(C(F)(F)F)CC4)n3)ccc1C(=O)NS(=O)(=O)c1ccn(n1)CCO2 (single isomer, unassigned) [Compound 302] turned out to be + (+ is <30%)

The value of Max. Activity measured for the molecule CC1(C)C[C@@H]2CCCNc3cccc(n3)S(=O)(=O)NC(=O)c3ccc(N4CC[C@H](CCCC5(C(F)(F)F)CC5)C4=O)nc3N1C2 (single isomer, unassigned) [Compound 174] turned out to be +++ (+++ is >60%)

The value of Max. Activity measured for the molecule CC1(C)CC2CCCCOc3ccc(cc3)S(=O)(=O)NC(=O)c3ccc(-n4ccc(OCCC5(C(F)(F)F)CC5)n4)nc3N1C2 (racemic) turned out to be ++ (++ is 30-60%)

The value of Max. Activity measured for the molecule CC1(C)C[C@H]2CCCCc3ccc(cc3)S(=O)(=O)NC(=O)c3ccc(-n4ccc(OCCC5(C(F)(F)F)CC5)n4)nc3N1C2 (single isomer, unassigned) [Compound 55] turned out to be +++ (+++ is >60%)

The value of Max. Activity measured for the molecule CC1(C)C[C@H]2CCNc3cccc(n3)S(=O)(=O)NC(=O)c3ccc(-n4ccc(OCCCC5(C(F)(F)F)CC5)n4)nc3N1C2 (single isomer, unassigned) [Compound 234] turned out to be ++ (++ is 30-60%)
